Assay: Ratio of drug level from brain to blood in mouse at 10 umol/kg, ip
Assay type: ADME, tissue-based
Readout: Kp

Q: Return reported Kp. Input compound: Cc1cc(N)nc(C[C@@H]2CNC[C@@H]2OCCNCCc2cccc(F)c2)c1 (racemic)
A: 0.046

Q: Return reported Kp. Input compound: CC(=O)N(CCO[C@H]1CNC[C@H]1Cc1cc(C)cc(N)n1)CCc1cccc(F)c1 (racemic)
A: 0.008

Q: Return reported Kp. Input compound: COC(=O)N(CCO[C@H]1CNC[C@H]1Cc1cc(C)cc(N)n1)CCc1cccc(F)c1 (racemic)
A: 0.015

Q: Return reported Kp. Input compound: Cc1cc(N)nc(C[C@@H]2CNC[C@@H]2OCCN(CCc2cccc(F)c2)C(=O)OCc2ccccc2)c1 (racemic)
A: 0.018

Q: Return reported Kp. Input compound: `Cc1cc(N)nc(C[C@@H]2CNC[C@@H]2NCCNCCc2cccc(F)c2)c1`
A: 0.024
